- ASSAY REMARKS: Half life in mouse at 6 mg/kg, iv
- Type: ADME, organism-based
- Set-up: dose 6 mg/kg, route intravenous
- TEST PARAMETERS: in vivo
QUANTITY NAME: half-life (h)
Return type: number; implicit unit h.

So what does the record say about half-life for O=C(/C=C/c1cccc2c1N(Cc1ccc3ccccc3c1)C(=O)C2O)NS(=O)(=O)c1ccc(F)cc1 (stereo unspecified) ?
2.1

---

- ASSAY REMARKS: Metabolic stability in rat liver microsomes assessed as parent compound remaining after 30 mins
- Type: ADME, Microsome
- TEST PARAMETERS: read-out: Stability
Give remaining at 0.5 h for every item shown.
Answer format: value, then unit.

So what does the record say about remaining at 0.5 h for CC1C(=O)N(Cc2ccc(Cl)cc2Cl)c2c(/C=C/C(=O)NS(=O)(=O)c3cccc(Cl)c3)cccc21 (stereo not drawn) ?
23.6%

So what does the record say about remaining at 0.5 h for O=C(/C=C/c1cccc2c1N(Cc1ccc3ccccc3c1)C(=O)C2(F)F)NS(=O)(=O)c1cc(Cl)c(Cl)s1 ?
71.8%

So what does the record say about remaining at 0.5 h for CC1C(=O)N(Cc2ccc3ccccc3c2)c2c(/C=C/C(=O)NS(=O)(=O)c3cc(Cl)c(Cl)s3)cccc21 (stereo not drawn) ?
8%

So what does the record say about remaining at 0.5 h for O=C(/C=C/c1cccc2c1N(Cc1ccc(Cl)cc1Cl)C(=O)C2)NS(=O)(=O)c1cccc(Cl)c1 ?
21%

So what does the record say about remaining at 0.5 h for O=C(/C=C/c1cccc2c1N(Cc1ccc3ccccc3c1)C(=O)C2)NS(=O)(=O)c1cc(Cl)c(Cl)s1 ?
32.9%

So what does the record say about remaining at 0.5 h for O=C(/C=C/c1cccc2c1N(Cc1ccc(Cl)cc1Cl)C(=O)C2)NS(=O)(=O)c1ccc(F)c(F)c1 ?
23.5%

So what does the record say about remaining at 0.5 h for O=C(/C=C/c1cccc2c1N(Cc1ccc3ccccc3c1)C(=O)C2(F)F)NS(=O)(=O)c1cccc(Cl)c1 ?
21%

So what does the record say about remaining at 0.5 h for O=C(/C=C/c1cccc2c1N(Cc1ccc3ccccc3c1)C(=O)C2)NS(=O)(=O)c1cc(F)c(F)cc1F ?
62.5%

---

Give log10(IC50) for every item shown.
- SYSTEM TESTED: Prostaglandin E2 receptor EP3 subtype (Homo sapiens)
- ASSAY REMARKS: Displacement of [3H]PGE2 from human EP3 receptor in buffer
Record value = log10 of IC50 given in nM.

So what does the record say about log10(IC50) for O=C(/C=C/c1cccc2c1N(Cc1ccc3ccccc3c1)C(=O)C2(F)F)NS(=O)(=O)c1cccc(Cl)c1 ?
-1.00

So what does the record say about log10(IC50) for O=C(/C=C/c1cccc2c1N(Cc1ccc(Cl)cc1Cl)C(=O)C2(F)F)NS(=O)(=O)c1cccs1 ?
2.37

So what does the record say about log10(IC50) for O=C(/C=C/c1cccc2c1N(Cc1ccc(F)c(F)c1)C(=O)C2)NS(=O)(=O)c1cc(Cl)c(Cl)s1 ?
-0.40

So what does the record say about log10(IC50) for O=C(/C=C/c1cccc2c1N(Cc1ccc3ccccc3c1)C(=O)C2)NS(=O)(=O)c1ccc(Cl)c(Cl)c1 ?
-0.30

So what does the record say about log10(IC50) for CC1C(=O)N(Cc2ccc(F)c(F)c2)c2c(/C=C/C(=O)NS(=O)(=O)c3cc(F)c(F)cc3F)cccc21 (stereo unspecified) ?
0.15

So what does the record say about log10(IC50) for O=C(/C=C/c1cccc2c1N(Cc1ccc(F)c(F)c1)C(=O)C2(F)F)NS(=O)(=O)c1cc(Cl)c(Cl)s1 ?
0.86

So what does the record say about log10(IC50) for O=C(/C=C/c1cccc2c1N(Cc1ccc(Cl)cc1Cl)C(=O)C2)NS(=O)(=O)c1ccc(Cl)c(Cl)c1 ?
0.08

So what does the record say about log10(IC50) for O=C(/C=C/c1cccc2c1N(Cc1ccc3ccccc3c1)C(=O)C2O)NS(=O)(=O)c1ccc(F)cc1 (stereo unspecified) ?
-0.05

So what does the record say about log10(IC50) for O=C(/C=C/c1cccc2c1N(Cc1ccc(F)c(F)c1)C(=O)C2(CO)CO)NS(=O)(=O)c1ccc(F)c(F)c1 ?
1.66

So what does the record say about log10(IC50) for CC1C(=O)N(Cc2ccc(Cl)cc2Cl)c2c(/C=C/C(=O)NS(=O)(=O)c3cc(F)c(F)cc3F)cccc21 (stereo unspecified) ?
-0.30

So what does the record say about log10(IC50) for CC1C(=O)N(Cc2ccc3ccccc3c2)c2c(/C=C/C(=O)NS(=O)(=O)c3cc(F)c(F)cc3F)cccc21 (stereo unspecified) ?
-0.52

So what does the record say about log10(IC50) for O=C(/C=C/c1cccc2c1N(Cc1ccc3ccccc3c1)C(=O)C2(F)F)NS(=O)(=O)c1ccc(F)cc1 ?
0.43

So what does the record say about log10(IC50) for CC1C(=O)N(Cc2ccc3ccccc3c2)c2c(/C=C/C(=O)NS(=O)(=O)c3ccc(F)c(F)c3)cccc21 (stereo unspecified) ?
-0.22

So what does the record say about log10(IC50) for O=C(/C=C/c1cccc2c1N(Cc1ccc(F)c(F)c1)C(=O)C2)NS(=O)(=O)c1ccc(F)c(F)c1 ?
-0.05

So what does the record say about log10(IC50) for O=C(/C=C/c1cccc2c1N(Cc1ccc(Cl)cc1Cl)C(=O)C2(F)F)NS(=O)(=O)c1ccc(F)cc1 ?
-0.70

So what does the record say about log10(IC50) for O=C(/C=C/c1cccc2c1N(Cc1ccc(Cl)cc1Cl)C(=O)C2(F)F)NS(=O)(=O)c1ccc(Cl)cc1 ?
0.04

---

- SYSTEM TESTED: Prostaglandin E2 receptor EP3 subtype (Homo sapiens, UniProt P43115)
- Sequence (P43115 whole entry): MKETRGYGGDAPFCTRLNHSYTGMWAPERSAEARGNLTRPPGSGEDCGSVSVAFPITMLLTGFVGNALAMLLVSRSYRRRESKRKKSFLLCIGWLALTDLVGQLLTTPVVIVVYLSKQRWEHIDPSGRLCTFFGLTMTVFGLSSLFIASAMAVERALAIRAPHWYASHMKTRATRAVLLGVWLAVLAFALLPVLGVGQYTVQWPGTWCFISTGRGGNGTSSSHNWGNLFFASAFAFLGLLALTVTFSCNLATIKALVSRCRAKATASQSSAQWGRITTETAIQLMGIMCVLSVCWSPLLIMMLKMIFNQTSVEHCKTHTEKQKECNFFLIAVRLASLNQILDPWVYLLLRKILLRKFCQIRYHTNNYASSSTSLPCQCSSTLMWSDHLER
- ASSAY REMARKS: Displacement of [3H]PGE2 from human EP3 receptor in presence of 10% human serum
pIC50: −log10 of the molar value.
We'd kindly ask you to apply these pIC50 classes: 0 = under 7, 1 = from 7 up to 8, 2 = 8 and over

Exam item: assign O=C(/C=C/c1cccc2c1N(Cc1ccc(F)c(F)c1)C(=O)C2)NS(=O)(=O)c1cccc(Cl)c1 to the correct category.
1

Exam item: assign O=C(/C=C/c1cccc2c1N(Cc1ccc(F)c(F)c1)C(=O)C2(F)F)NS(=O)(=O)c1cc(F)c(F)cc1F to the correct category.
0

Exam item: assign O=C(/C=C/c1cccc2c1N(Cc1ccc(Cl)cc1Cl)C(=O)C2)NS(=O)(=O)c1cc(F)c(F)cc1F to the correct category.
2

Exam item: assign CC1C(=O)N(Cc2ccc(Cl)cc2Cl)c2c(/C=C/C(=O)NS(=O)(=O)c3ccc(F)c(F)c3)cccc21 (stereo unspecified) to the correct category.
2

Exam item: assign O=C(/C=C/c1cccc2c1N(Cc1ccc3ccccc3c1)C(=O)C2O)NS(=O)(=O)c1ccc(F)cc1 (stereo unspecified) to the correct category.
1

Exam item: assign O=C(/C=C/c1cccc2c1N(Cc1ccc(Cl)cc1Cl)C(=O)C2)NS(=O)(=O)c1ccc(Cl)c(Cl)c1 to the correct category.
2

Exam item: assign O=C(/C=C/c1cccc2c1N(Cc1ccc(F)c(F)c1)C(=O)C2)NS(=O)(=O)c1cc(F)c(F)cc1F to the correct category.
1

Exam item: assign O=C(/C=C/c1cccc2c1N(Cc1ccc(Cl)cc1Cl)C(=O)C2(F)F)NS(=O)(=O)c1ccc(Cl)cc1 to the correct category.
0

Exam item: assign O=C(/C=C/c1cccc2c1N(Cc1ccc(F)c(F)c1)C(=O)C2(F)F)NS(=O)(=O)c1cccc(Cl)c1 to the correct category.
0

Exam item: assign O=C(/C=C/c1cccc2c1N(Cc1ccc3ccccc3c1)C(=O)C2(CO)CO)NS(=O)(=O)c1cc(Cl)c(Cl)s1 to the correct category.
0

---

- ASSAY REMARKS: Metabolic stability in rat liver microsomes assessed as parent compound remaining after 30 mins
- Type: ADME, Microsome
- TEST PARAMETERS: read-out: Stability
QUANTITY NAME: remaining at 0.5 h (%)
Return type: number; implicit unit %.

So what does the record say about remaining at 0.5 h for CC1C(=O)N(Cc2ccc3ccccc3c2)c2c(/C=C/C(=O)NS(=O)(=O)c3ccc(Cl)c(Cl)c3)cccc21 (configuration not stated) ?
10.3

So what does the record say about remaining at 0.5 h for O=C(/C=C/c1cccc2c1N(Cc1ccc3ccccc3c1)C(=O)C2(F)F)NS(=O)(=O)c1ccc(Cl)c(Cl)c1 ?
62.1

So what does the record say about remaining at 0.5 h for O=C(/C=C/c1cccc2c1N(Cc1ccc(Cl)cc1Cl)C(=O)C2(F)F)NS(=O)(=O)c1cc(Cl)c(Cl)s1 ?
94.8

So what does the record say about remaining at 0.5 h for CC1C(=O)N(Cc2ccc(Cl)cc2Cl)c2c(/C=C/C(=O)NS(=O)(=O)c3ccc(F)c(F)c3)cccc21 (configuration not stated) ?
62.1

So what does the record say about remaining at 0.5 h for O=C(/C=C/c1cccc2c1N(Cc1ccc3ccccc3c1)C(=O)C2)NS(=O)(=O)c1ccc(Cl)c(Cl)c1 ?
46

So what does the record say about remaining at 0.5 h for O=C(/C=C/c1cccc2c1N(Cc1ccc(Cl)cc1Cl)C(=O)C2)NS(=O)(=O)c1cc(Cl)c(Cl)s1 ?
46.3

So what does the record say about remaining at 0.5 h for CC1C(=O)N(Cc2ccc3ccccc3c2)c2c(/C=C/C(=O)NS(=O)(=O)c3cccs3)cccc21 (configuration not stated) ?
48
